All figures here come from ChEMBL document CHEMBL4130568.

Target or system Carbonic anhydrase 2 (Cryptococcus neoformans, UniProt Q3I4V7): recorded pKi listed per item.
Scale explanation: pKi corresponds to minus log10 of a concentration expressed in moles per litre.

OB1OCc2ccc(NC(=S)NCCc3ccccc3)cc21 : 6.17
O=[N+]([O-])c1ccc2c(c1)B(O)OC2 : 7.06
OB1OCc2ccc(NC(=S)NCc3ccco3)cc21 : 6.63
Cc1ccc(NC(=S)Nc2ccc3c(c2)B(O)OC3)cc1 : 6.74
OB1OCc2cc(F)ccc21 : 7.05
O=C(Nc1ccc(Cl)cc1)Nc1ccc2c(c1)B(O)OC2 : 7.04

Give pKi (Carbonic anhydrase 2 (Cryptococcus neoformans, UniProt Q3I4V7)) of the following compound: `O=C(NCc1ccco1)Nc1ccc2c(c1)B(O)OC2`
6.55

# repeat for `O=C(NCc1ccccc1)Nc1ccc2c(c1)B(O)OC2`
6.22

Another: `O=C(Nc1ccccc1)Nc1ccc2c(c1)B(O)OC2`
7.09
